# Test system: EPHA1
ASSAY METRIC: Kd

Query: GET /values?readout=Kd&system=EPHA1&item= Clc1cccc(-c2nc(Nc3ccncc3)c3ccccc3n2)c1
Reply: > 10 µM

====

Below, each entry is listed with its recorded %Inh.
# Test system: JAK1(JH2domain-pseudokinase)
# APPLIED CONDITIONS: concentration: 1 μM, replicates: in singlicate; n = 1
Please reply with the bare figure in % and do not write the unit itself.

Worked cases, %Inh given:
>  <MOLECULE>
O=C(NCCCN1CCCC1=O)c1cnc(NCc2cc(Cl)ccc2Cl)nc1NC1CCNCC1

>  <%Inh, %>
4

$$$$
>  <MOLECULE>
COc1ccc(NC(=O)c2ccc(-c3cc(-c4nnc(C)o4)ccc3C)cc2)cc1 [GW595885]

>  <%Inh, %>
0

$$$$
>  <MOLECULE>
Oc1ccc2ncnc(Nc3ccc(OCc4ccccc4)cc3)c2c1 [GI262866]

>  <%Inh, %>
0

$$$$

Query: Hello, I am looking for reported %Inh with JAK1(JH2domain-pseudokinase) for Cc1cc(N2CCC(NS(=O)(=O)c3ccc(F)cc3)CC2)nc(Nc2cccc(C#N)c2)n1.O=C(O)C(F)(F)F [GSK1653537] . Could you help?
Reply: 0

Query: Value wanted: %Inh (JAK1(JH2domain-pseudokinase)) of entry CCCc1ccc(S(=O)(=O)NC2CCN(c3ccnc(Nc4ccc(OC)cc4)n3)C2)cc1 (centres unmarked) [GSK1379737]
Reply: 0

====

# Tested on: KIT
# APPLIED CONDITIONS: concentration: 1 μM, replicates: in singlicate; n = 1
compounds and their reported %Inh
// return numeric value only (unit: %, not printed)

In the examples that follow, each entry is paired with its recorded %Inh.
>  <COMPOUND>
CN1CCC(n2cnc(-c3ccc(F)cc3)c2-c2ccnc(NC3CCNCC3)n2)CC1

>  <ASSAY METRIC>
%Inh

>  <MEASURED RESULT>
25

$$$$
>  <COMPOUND>
Nc1nc(-c2ccc3c(N)n[nH]c3c2)cc(N2CCC[C@@H](C(=O)Nc3ccccc3)C2)n1.O=C(O)C(F)(F)F.O=C(O)C(F)(F)F

>  <ASSAY METRIC>
%Inh

>  <MEASURED RESULT>
25

$$$$
>  <COMPOUND>
CC(C)(C)OC(=O)NC1CCCN(c2cc(-c3ccc4c(N)n[nH]c4c3)nc(N)n2)C1 (stereo not shown)

>  <ASSAY METRIC>
%Inh

>  <MEASURED RESULT>
8

$$$$

Proceed to the following item.
Query: State the recorded %Inh for this entry: O=C(Nc1ccccc1)Nc1ccc(Oc2ccc3nccn3n2)cc1
Reply: 95.8

====

# Test system: MLCK
# Construct: gene MYLK3
# APPLIED CONDITIONS: concentration: 1 μM, replicates: in singlicate; n = 1
ASSAY METRIC: %Inh (%)
Supply the numeric figure in %, leaving out any unit text.

Worked set:
>  <COMPOUND>
Fc1ccc(-c2ncn(CCCNCc3ccccc3)c2-c2ccncc2)cc1

>  <%Inh / %>
0

$$$$
>  <COMPOUND>
CC(C)(C)OC(=O)NC1CCCN(c2cc(-c3ccc4c(N)n[nH]c4c3)nc(N)n2)C1 (centres unmarked)

>  <%Inh / %>
0

$$$$
>  <COMPOUND>
CCC(CC)(CC)n1cnc2c(N)ncnc21

>  <%Inh / %>
0

$$$$
>  <COMPOUND>
COc1ccc(-c2oc3ncnc(N)c3c2-c2ccc(OC)cc2)cc1

>  <%Inh / %>
23

$$$$

Next compound, please.
Query: Can you share its %Inh? I mean this compound: CNc1nccc(-c2c(-c3ccc(F)cc3)ncn2C2CCN(C)CC2)n1
Reply: 0

====

# System: TAOK2
# APPLIED CONDITIONS: concentration: 1 μM, replicates: in singlicate; n = 1
Listed compounds paired with reported %Inh
Give the value, in units of %, as a plain number.

>  <SMILES STRING>
CCc1nc(-c2cccc(N(C)S(=O)(=O)c3ccccc3)c2)c(-c2ccnc(Nc3ccc(N4CCN(C(C)=O)CC4)nc3)n2)s1

>  <SYSTEM TESTED>
TAOK2

>  <%Inh [%]>
0

$$$$
>  <SMILES STRING>
Fc1ccc(Nc2nccc(-c3c(-c4ccc(Cl)cc4)nn4ncccc34)n2)cc1F

>  <SYSTEM TESTED>
TAOK2

>  <%Inh [%]>
16

$$$$
>  <SMILES STRING>
CSc1ccc(NC2=C(c3ccccc3Cl)C(=O)NC2=O)cc1

>  <SYSTEM TESTED>
TAOK2

>  <%Inh [%]>
1

$$$$
>  <SMILES STRING>
Clc1cccc(-c2nc(Nc3ccncc3)c3ccccc3n2)c1

>  <SYSTEM TESTED>
TAOK2

>  <%Inh [%]>
4

$$$$
>  <SMILES STRING>
Clc1cc(Nc2ncnc3cc[nH]c23)ccc1OCc1ccccn1

>  <SYSTEM TESTED>
TAOK2

>  <%Inh [%]>
0

$$$$
>  <SMILES STRING>
O=C(NCCCN1CCCC1=O)c1cnc(NCc2cc(Cl)ccc2Cl)nc1NC1CCNCC1

>  <SYSTEM TESTED>
TAOK2

>  <%Inh [%]>
0

$$$$
>  <SMILES STRING>
O=C(c1ccc(-c2cc(-c3c[nH]nc3-c3ccccn3)ccn2)cc1)N1CCCC1

>  <SYSTEM TESTED>
TAOK2

>  <%Inh [%]>
45

$$$$
>  <SMILES STRING>
COc1ccc(NC(=O)Nc2ccc(C)c(-c3ccc(C(=O)Nc4ccncc4)cc3)c2)cc1

>  <SYSTEM TESTED>
TAOK2

>  <%Inh [%]>
0

$$$$

Shift focus to the following entry.
Query: Please tell me: %Inh of CSc1nn2c(=O)cc(N3CCOCC3)nc2n1Cc1cccc(Cl)c1Cl , system TAOK2?
Reply: 0

====

Attribute: %Inh
# System: CAMK2G
# APPLIED CONDITIONS: concentration: 1 μM, replicates: in singlicate; n = 1
The answer is to be given in %; state only the numeric part.

>  <SMILES STRING>
COc1cc2c(Nc3cccc(NC(=O)c4ccccc4)c3)ncnc2cc1OCCCN1CCOCC1

>  <ASSAY METRIC>
%Inh

>  <MEASURED RESULT>
15

$$$$

Query: Quick one: %Inh of C[C@@H]1CCN(C(=O)CO)C[C@@H]1N(C)c1ncnc2[nH]ccc12 ?
Reply: 13

Query: %Inh; subject: CCn1c(-c2ccncc2)nc2cnccc21
Reply: 0

Query: What value of %Inh has been reported for the following compound? CSc1ccc(NC2=C(c3ccccc3Cl)C(=O)NC2=O)cc1
Reply: 36

====

# Tested on: HIPK1
# APPLIED CONDITIONS: concentration: 1 μM, replicates: in singlicate; n = 1
Exam item: assign rule met to entries whose %Inh is below 5% and rule not met to entries at or above 5%. Note that a value of exactly 5% receives rule not met.

>  <COMPOUND>
Cl.Fc1ccccc1COc1ccc(Nc2ncnc3ccc(-c4nnc(C(F)(F)F)o4)cc23)cc1Cl [GW424170]

>  <CATEGORY LABEL>
rule met

$$$$

Query: Lab note: %Inh threshold 5%. Does this compound come in strictly under it? O=C(Nc1ccccc1)Nc1ccc(Oc2ccc3nccn3n2)cc1
Reply: rule not met

Query: I'd appreciate it if you could check whether Clc1cc(Nc2ncnc3cc[nH]c23)ccc1OCc1ccccn1 has %Inh smaller than 5%.
Reply: rule not met

Query: Consider the compound Nc1nccc2scc(-c3ccc4c(c3)CCN4C(=O)Cc3cc(F)ccc3F)c12 [GSK2587663] . Is its %Inh strictly less than 5%?
Reply: rule met

Query: Find out if reported %Inh for O=c1cc(N2CCOCC2)nc2n(Cc3cccc(Cl)c3)ccn12 [GSK2296823] is less than 5%
Reply: rule not met

Query: Would you kindly verify if %Inh of Nc1nc(-c2ccc3c(N)n[nH]c3c2)cc(N2CCC[C@@H](C(=O)Nc3ccccc3)C2)n1.O=C(O)C(F)(F)F.O=C(O)C(F)(F)F [GSK2288359] is strictly less than 5%?
Reply: rule met

====

# System: CSNK1D
pKd: −log10 of the molar value.
Criterion: pKd meeting or surpassing 7. Met: Satisfied. Not met: Not satisfied.

Query: Could you verify whether the entry CNc1nccc(-c2c(-c3ccc(F)cc3)ncn2C2CCN(C)CC2)n1 [SB-222903] shows pKd of no less than 7?
Reply: Satisfied

Query: Could you tell me if the measured pKd of CC(C)N1CCC(n2cnc(-c3ccc(F)cc3)c2-c2ccnc(N)n2)CC1 [SB-223132] reaches 7 or more?
Reply: Satisfied

====

Attribute: %Inh
# Test system: DMPK
# APPLIED CONDITIONS: concentration: 1 μM, replicates: in singlicate; n = 1
Kindly answer with a numeric value in %, unit omitted.

Query: Tell me the measured %Inh of COc1ccc(NC(=O)Nc2ccc(C)c(-c3ccc(C(=O)Nc4ccncc4)cc3)c2)cc1 , please.
Reply: 0

Query: So what's the measured %Inh for this one? O=C(CCO)NCCn1ccc2ncnc(Nc3ccc(Oc4cccc(C(F)(F)F)c4)c(Cl)c3)c21
Reply: 0

Query: Dear colleague, I am looking for the recorded %Inh of the following molecule: O=C(NCCCN1CCCC1=O)c1cnc(NCc2cc(Cl)ccc2Cl)nc1NC1CCNCC1
Reply: 0

Query: Which %Inh is listed for C[C@H]1CC[C@@H](C(=O)Nc2ccccc2)CN1c1cc(-c2ccc3c(N)n[nH]c3c2)nc(N)n1 ?
Reply: 0

Query: # query: %Inh of entry Fc1cccc(COc2ccc(Nc3ncnc4sc(-c5ccc[nH]5)cc34)cc2Cl)c1
Reply: 0

Query: # get_value(readout='%Inh', item= CSc1ccc(NC2=C(c3ccccc3Cl)C(=O)NC2=O)cc1 )
Reply: 0

Query: For Clc1ccc(-c2cc(-c3c[nH]nc3-c3ccccn3)ccn2)cc1 , what is its reported %Inh?
Reply: 0

Query: So what's the measured %Inh for this one? COc1ccc(Nc2nccc(N3CCC(NC(=O)c4cccc(NC(C)=O)c4)C3)n2)cc1 (centres unmarked)
Reply: 13

Query: State the recorded %Inh for this entry: Cc1ccc(NC(=O)c2cccc(C#N)c2)cc1-c1ccc(C(=O)Nc2ccncc2)cc1
Reply: 0

Query: Name the recorded %Inh for Fc1ccc(-c2ncn(CCCNCc3ccccc3)c2-c2ccncc2)cc1 .
Reply: 3

Query: Given the molecule O=c1cc(N2CCOCC2)nc2n(Cc3cccc(Cl)c3)ccn12 , what is its reported %Inh?
Reply: 0

Query: Requested field: %Inh. Item: CC(C)N1CCC(n2cnc(-c3ccc(F)cc3)c2-c2ccnc(N)n2)CC1
Reply: 0

Query: May I ask what %Inh has been recorded for CNc1nccc(-c2c(-c3ccc(F)cc3)ncn2C2CCN(C)CC2)n1 ?
Reply: 1

meta.source: paper PMC5540273
